- System: CAKI-1 renal
- method-description: NCI tumour cell line growth inhibition, 48 h
endpoint: TGI

compound="O=C1CCc2cc3c(cc21)C(C(=O)O)CC3 (stereo unspecified)" recorded_measurement="> 100 µM"
compound=Cc1cc2nc3c(N)nn(CCN(C)C)c3nc2cc1C recorded_measurement="> 100 µM"
compound="OCC1c2ccccc2-n2nc(-c3ccccc3)c(O)c21 (stereo unspecified)" recorded_measurement="31.7 µM"
compound=COc1ccc(Nc2nc(NNC(=O)Cc3ccccc3)nc(NNC(=O)c3ccncc3)n2)cc1 recorded_measurement="> 10 µM"
compound=Clc1ccc(Cl)c2[s+]snc12 recorded_measurement="> 100 µM"
compound="Cc1cn(C2CC(SCCO)C(CO)O2)c(=O)[nH]c1=O (stereo unspecified)" recorded_measurement="> 100 µM"

* * *

- System: SNB-75 CNS
- method-description: NCI tumour cell line growth inhibition, 48 h; in the data active = GI50 below about 0.43 µM; inactive = the rest
Outcome codes: active, inactive

compound_smiles=Cc1ccc2c(c1)nc(C(=O)c1ccco1)c(C(F)(F)F)[n+]2[O-] category_label=inactive
compound_smiles=Nc1ccccc1C#C/C=C\C#Cc1ccccc1C(F)(F)F category_label=active
compound_smiles=N[C@@H](Cc1c[nH]c2ccccc12)C(=O)NC1CCN(C(=O)c2c[nH]c3ccccc23)CC1 category_label=inactive

* * *

- Tested on: SR leukemia
- method-description: NCI tumour cell line growth inhibition, 48 h
Each item that follows carries a reported TGI.
endpoint: TGI

compound=CCOC(=O)c1nc2ccccc2nc1Nc1ccc(F)cc1 recorded_measurement="> 100 µM"
compound=c1cc2c3c(c1)[C@@H]1O[C@@H]1c1cccc(c1-3)[C@@H]1O[C@H]21 recorded_measurement="> 100 µM"
compound="CC(=O)OC1C(=O)C(O)C(C)OC1O[C@@H]1C[C@@]2(C)[C@@H]3CC=C4[C@@H](C[C@H](O)C(=O)C4(C)C)[C@]3(C)C(=O)C[C@]2(C)[C@H]1[C@@](C)(O)C(=O)/C=C/C(C)(C)O (stereo not given in full)" recorded_measurement="> 10 µM"
compound=OCc1cn(Cc2cccc(Cl)c2)c2ccccc12 recorded_measurement="44.1 µM"
compound="CC(=O)NC1C(OCc2ccccc2)OC(CO)C(O)C1OCC(=O)N[C@@H](C)C(=O)N[C@H](CCC(=O)NCCCCNc1c2ccccc2nc2cccc([N+](=O)[O-])c12)C(N)=O (stereo not given in full)" recorded_measurement="> 100 µM"

* * *

- System: RPMI-8226 leukemia
- method-description: NCI tumour cell line growth inhibition, 48 h
Each item that follows carries a reported TGI.
endpoint: TGI

compound=Cc1cc(C)c(C#N)c(SC(=S)NC(=O)c2ccccc2)n1 recorded_measurement="> 100 µM"
compound="CN1CCCC(OC(=O)c2cc3cc(CCl)ccc3oc2=O)C1 (stereo not drawn)" recorded_measurement="89.1 µM"
compound="CSc1nc(NC2OCC(OC(C)=O)C(OC(C)=O)C2OC(C)=O)c2c(OC(C)=O)c(C)c(=O)oc2n1 (stereo not drawn)" recorded_measurement="> 100 µM"
compound="C=C1CC(Cn2cc(Br)c(=O)[nH]c2=O)(c2ccc(Br)cc2)OC1=O (stereo not drawn)" recorded_measurement="1.61 µM"
compound=COc1cc(Nc2nc3cc(N)cc(N)c3nc2-c2ccccc2)cc(OC)c1 recorded_measurement="10.4 µM"
compound="CCCOC1OC(CS(=O)(=O)O)C(OC(C)=O)C(OC(C)=O)C1OC(C)=O (stereo not drawn)" recorded_measurement="> 100 µM"
compound="COc1ccc(C2C3=CONC3CC3CCCCC32)cc1 (stereo not drawn)" recorded_measurement="> 100 µM"
compound=CCO[C@@H]1OC(=O)[C@](C)(C(C)=O)[C@@H]1C recorded_measurement="> 100 µM"

* * *

- System: NCI-H23 lung
- method-description: NCI tumour cell line growth inhibition, 48 h
Each item that follows carries a reported TGI.
endpoint: TGI

molecule=O=C(/C=C/c1cccnc1)NCCCCC1CCN(C(=O)c2ccccc2)CC1 recorded_measurement="> 100 µM"
molecule="COc1ccc(C2C3=CONC3CC3CCCCC32)cc1 (stereo not given)" recorded_measurement="> 100 µM"
molecule="Cc1ccc(C(CN(C)C)C(=O)c2ccccc2)cc1 (stereo not given)" recorded_measurement="26.7 µM"
molecule="CC(C)N(C(=O)C12C3C4C5(C#N)C3C1(I)C5C42I)C(C)C (stereo not given)" recorded_measurement="> 100 µM"
molecule=O=c1cc(C(F)(F)F)c2cc3c(cc2o1)NCCC3 recorded_measurement="> 100 µM"
molecule="O=C1C(Cl)C(c2cccc(O)c2)N1n1cnc2ccccc2c1=O (stereo not given)" recorded_measurement="> 100 µM"
molecule=Cn1cnc(/C=C/C#N)c1 recorded_measurement="> 100 µM"
molecule=Cc1ccc(C(=O)Nc2ccc(CN3CCN(C)CC3)c(C(F)(F)F)c2)cc1C#Cc1cnc(N)cc1C#N recorded_measurement="1.28 µM"
molecule=CCn1c(SCc2nnc(Nc3ccccc3)s2)nc2ccccc2c1=O recorded_measurement="19.4 µM"
molecule=COc1ccc(/C=N/N=C(\N)NO)c(OC)c1OC recorded_measurement="> 100 µM"
molecule=O=C1/C(=C/c2cccs2)N=C(c2ccccc2)N1c1nc2ccccc2s1 recorded_measurement="> 100 µM"
molecule=Cc1cc2nc3c(N)nn(CCN(C)C)c3nc2cc1C recorded_measurement="> 100 µM"
molecule=COc1ccc(-n2c(SCc3cc(OC)c(OC)c(OC)c3)nc3ccc(C)cc3c2=O)c(OC)c1 recorded_measurement="> 100 µM"
molecule="CCCCCCCCCCC[N+]1(Cc2ccccc2)CC2CCN(Cc3ccccc3)CC2C1 (stereo not given)" recorded_measurement="1.03 µM"
molecule=Clc1ccc(-n2nnc(C3=NCCN3)c2-c2ccccc2)cc1 recorded_measurement="> 100 µM"
molecule=O=S(=O)([O-])c1cccc2cccc(N=Cc3ccccc3[O-])c12.O=S(=O)([O-])c1cccc2cccc(N=Cc3ccccc3[O-])c12.[O]=[U]=[O] recorded_measurement="> 100 µM"
molecule="CC(=O)NC1C(OCc2ccccc2)OC(CO)C(O)C1OCC(=O)N[C@@H](C)C(=O)N[C@H](CCC(=O)NCCCCNc1c2ccccc2nc2cccc([N+](=O)[O-])c12)C(N)=O (stereo not given in full)" recorded_measurement="2.54 µM"
molecule="COCCN(C(=O)c1ccccc1)C1CCC(=O)c2[nH]c3ccccc3c21 (stereo not given)" recorded_measurement="36.9 µM"
molecule="COC(C/C=C\\C=C\\CC/C=C/CC(C)/C=C/C(=C\\C(=O)O)CC(=O)O)/C(C)=C\\C=C(/C)C(=O)O (stereo not given)" recorded_measurement="> 100 µM"
molecule="COc1c(O)c2c(c3cc(C(=O)N4CCc5c4c(O)c(OC)c4[nH]c(C(=O)N6CC7CC78C6=CC(=O)c6[nH]cc(C)c68)cc54)[nH]c13)CCN2C(N)=O (stereo not given)" recorded_measurement="0.00242 µM"

* * *

- Test system: KM12 colon
- method-description: NCI tumour cell line growth inhibition, 48 h
Each item that follows carries a reported GI50.
endpoint: GI50

compound="CC(CN(CP(=O)([O-])[O-])CP(=O)([O-])[O-])N(CP(=O)([O-])[O-])CP(=O)([O-])[O-].N.N.[Pt+2] (stereo not drawn)" recorded_measurement="> 100 µM"
compound=Cc1ccc(C(=O)Nc2ccc(CN3CCN(C)CC3)c(C(F)(F)F)c2)cc1C#Cc1cnc(N)cc1C#N recorded_measurement="0.122 µM"
compound=NC(=O)c1cnc(N[C@@H]2CCCC[C@@H]2N)nc1Nc1cccc(-n2nccn2)c1 recorded_measurement="2.15 µM"
compound=COc1ccccc1-[n+]1cc(-c2ccc(-c3ccccc3)cc2)n2c1CCCCC2 recorded_measurement="0.288 µM"
compound=CC(=O)OC[C@H]1O[C@@H](n2ccc(=O)[nH]c2=O)[C@H](OC(C)=O)[C@@H]1OC(C)=O recorded_measurement="> 100 µM"
compound=COc1ccc(-c2cc(-c3ccc(OC)c(OC)c3)nc(SCCCC(=O)NO)n2)cc1 recorded_measurement="2.23 µM"
compound=Oc1ccc(Cc2ccc(O)c3ncccc23)c2cccnc12 recorded_measurement="0.149 µM"
compound=Cc1c(C#N)cccc1-c1cc(-c2cn(Cc3cccc(C(C)(C)O)n3)nn2)nc(N)n1 recorded_measurement="47.4 µM"
compound=COc1ccc(-n2c(SCc3cc(OC)c(OC)c(OC)c3)nc3ccc(C)cc3c2=O)c(OC)c1 recorded_measurement="3.42 µM"
compound=COc1cc(Nc2nc3cc(N)cc(N)c3nc2-c2ccccc2)cc(OC)c1 recorded_measurement="13.3 µM"
compound=CN(C)CCCn1c2c(c3cnccc3c1=O)C(=O)c1ccccc1-2 recorded_measurement="0.488 µM"
compound="C[C@]12CCC3[C@@H](C[C@@H]4SC(Nc5ccccc5)=N[C@@]45CC(=O)CC[C@]35C)[C@@H]1CCC2=O (stereo partly drawn)" recorded_measurement="8.27 µM"
compound="CC(C)(C)N1CCC1C(N)=O (stereo not drawn)" recorded_measurement="> 100 µM"
compound=CCN(CC)c1ccc(/C=C\c2cc(C)c3cc(C)ccc3n2)cc1 recorded_measurement="3.39 µM"
compound=N#Cc1c(C(=O)c2ccccc2)cnn1-c1ccccc1 recorded_measurement="> 25 µM"
compound=C=C1C(=O)O[C@H]2[C@H]1CC/C(COC(=O)NCc1cc3ccccc3[nH]1)=C\CC[C@@]1(C)O[C@@H]21 recorded_measurement="3.3 µM"
compound=c1ccc2c(c1)ccc1c3ccccc3c(NCCCCN3CCCCC3)cc21 recorded_measurement="1.75 µM"
compound=C=C1C(=O)O[C@H]2[C@H]1CC/C(COC(=O)/C=C/C(=O)OC/C1=C/CC[C@@]3(C)O[C@H]3[C@H]3OC(=O)C(=C)[C@@H]3CC1)=C\CC[C@@]1(C)O[C@@H]21 recorded_measurement="5.19 µM"

Where do these numbers come from? They come from PubChem BioAssay (NCI).
